- system.under.test: Leu345Val-ERRγ mutant receptor (GST-fused LBD) (Homo sapiens, UniProt P62508, L345V)
- test.details: biochemical
readout.kind: pIC50
When answering, recall that pIC50 equals minus log10 of the concentration in mol/L, and write that number alone.

stdin: Provide measured pIC50 value, entry: CC(C)(c1ccc(O)cc1)c1ccc(O)cc1 [BPA, bisphenol A]
stdout: 6.81

----------
- system.under.test: Tyr330Phe-ERRγ mutant receptor (GST-fused LBD) (Homo sapiens, UniProt P62508, Y330F)
- Construct: wild-type ERRγ-LBD encoding 222-458 residues was generated by PCR
- test.details: Competitive binding assay using [^3H]BPA
- experimental.context: read-out: Receptor binding potency IC50
readout.kind: IC50 (nM)
Respond numerically; units are nM and should not be typed.

stdin: Fill in reported IC50 for this entry: CC(C)(c1ccc(O)cc1)c1ccc(O)cc1
stdout: 16.1

----------
- system.under.test: Leu342Val-ERRγ mutant receptor (GST-fused LBD) (Homo sapiens, UniProt P62508, L342V)
- test.details: biochemical
readout.kind: pIC50
Reminder that pIC50 is minus the log10 of a molar concentration.

stdin: Give pIC50 for this entry on Leu342Val-ERRγ mutant receptor (GST-fused LBD) (Homo sapiens, UniProt P62508, L342V): CC(C)(c1ccc(O)cc1)c1ccc(O)cc1
stdout: 7.46

----------
- system.under.test: Asn346Gly-ERRγ mutant receptor (GST-fused LBD) (Homo sapiens, UniProt P62508, N346G)
- Construct: wild-type ERRγ-LBD encoding 222-458 residues; made in house; host or cells: E. coli BL21
- test.details: Competitive binding assay using [^3H]BPA
- experimental.context: read-out: Receptor binding potency IC50
readout.kind: pIC50
Remember the convention: pIC50 equals -log10 of concentration in molar.

stdin: Hello, please tell me recorded pIC50 for this one: CC(C)(c1ccc(O)cc1)c1ccc(O)cc1
stdout: 7.37

----------
- system.under.test: Leu345Ile-ERRγ mutant receptor (GST-fused LBD) (Homo sapiens, UniProt P62508, L345I)
- Construct: wild-type ERRγ-LBD encoding 222-458 residues
- test.details: Competitive binding assay using [^3H]BPA
- experimental.context: read-out: Receptor binding potency IC50
readout.kind: IC50 (nM)
A number alone suffices; assume nM.

stdin: Give IC50 for CC(C)(c1ccc(O)cc1)c1ccc(O)cc1 tested on Leu345Ile-ERRγ mutant receptor (GST-fused LBD) (Homo sapiens, UniProt P62508, L345I).
stdout: 158

----------
- system.under.test: Leu345Ala-ERRγ mutant receptor (GST-fused LBD) (Homo sapiens, UniProt P62508, L345A)
- Sequence (P62508 222-458 L345A limits assumed): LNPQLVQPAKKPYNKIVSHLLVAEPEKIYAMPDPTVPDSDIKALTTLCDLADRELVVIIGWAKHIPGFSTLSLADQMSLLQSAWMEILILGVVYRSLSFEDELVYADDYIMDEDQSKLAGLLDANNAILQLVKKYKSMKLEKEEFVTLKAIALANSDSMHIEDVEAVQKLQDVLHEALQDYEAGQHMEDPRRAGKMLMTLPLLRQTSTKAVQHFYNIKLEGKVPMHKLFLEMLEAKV
- test.details: biochemical
readout.kind: IC50 (µM)
Quick note: give the figure in µM, leave out the unit.

stdin: For Leu345Ala-ERRγ mutant receptor (GST-fused LBD) (Homo sapiens, UniProt P62508, L345A), give IC50 of the listed compound: CC(C)(c1ccc(O)cc1)c1ccc(O)cc1 [BPA, bisphenol A]
stdout: 0.0606
